Catalogue of growth values
- System: MDA-MB-231 breast
- Assay Protocol: NCI-60 one-dose screen, 48 h (100 = growth as untreated, 0 = no growth, -100 = all killed)
- Measurement Context: 10 µM
The panel holds about 83,000 compounds, 20% with a hit somewhere; the sample as a whole holds those more often. Calls of active or inactive are those of the source. How the source made its calls: active means growth percent below 10; inactive means the rest.
Measurement Name: growth

Compound	Measurement Name	Result
C=CC(=O)OCCCCCCCC	growth	109% (inactive)
COC(=O)CCCCC1=CCC2C(=O)C=C(O)C2C1 (configuration not stated)	growth	106% (inactive)
N#Cc1ccc(NC(=O)Nc2cccc(C#N)c2)cc1	growth	92.1% (inactive)
COc1cc(C2c3cc4c(cc3C3OC(=O)C2C3CO)OCO4)cc(OC)c1OC (configuration not stated)	growth	30.3% (inactive)
O=C(CCl)N1CCN(C/C=C/c2ccccc2)CC1	growth	100% (inactive)
O=C(/C=C\c1ccc(O)cc1)c1ccccc1	growth	92.4% (inactive)
Nc1nc(OCc2ccccc2)c2[nH]cnc2n1	growth	97.9% (inactive)
O=C(O)c1cc([N+](=O)[O-])ccc1Cl	growth	101% (inactive)
O=S(=O)(O)c1ccc(O)c2ccccc12	growth	90.8% (inactive)
CCN(CC)CCCC(C)Nc1ccnc(/C=C/c2ccc(Cl)cc2)c1 (configuration not stated)	growth	-28.3% (active)
CN(C)C(=O)Oc1cccc([N+](C)(C)C)c1	growth	91.1% (inactive)
CN(C)CCN(Cc1ccccc1)c1ccccc1	growth	91.7% (inactive)
CN1C(=O)CN2CCc3ccccc3C2c2cc(Cl)ccc21 (configuration not stated)	growth	93.6% (inactive)
CCOC(=O)c1coc(C(=O)OCC)c1C(=O)OCC	growth	107% (inactive)
Cc1cc(C(O)(c2ccc(Nc3ccccc3)cc2)c2ccc(Nc3ccc(S(=O)(=O)O)cc3)cc2)ccc1N (configuration not stated)	growth	-51.5% (active)
CN(C)c1ccc2oc(=O)c3ccccc3c2c1	growth	77.6% (inactive)
CN(C)c1ccc(CNC(C(=O)c2ccccc2)c2ccccc2)cc1 (configuration not stated)	growth	107% (inactive)
OCc1ccc(-c2ccc(-c3ccc(CO)s3)o2)s1	growth	98.8% (inactive)
CC(=O)Nc1c(C)cc(C)cc1C	growth	114% (inactive)
CCOc1ccc2[nH]c(=S)sc2c1	growth	104% (inactive)
COC(=O)c1ccc(C(C)C)cc1	growth	113% (inactive)
CC(=O)Oc1ccc(Br)cc1C(=O)O	growth	118% (inactive)
CCN(CC)C(=O)/C=C(/C)c1ccccc1	growth	108% (inactive)
O=C(N/N=C\c1cc(Br)cc(Br)c1O)N/N=C/c1cc(Br)cc(Br)c1O	growth	72% (inactive)
CC1(C)N=C(N)N=C(N)N1c1cccc(Br)c1	growth	77.6% (inactive)
CC(C)(C)c1cc(O)c(C(C)(C)C)cc1O	growth	88.9% (inactive)
FC(F)(F)c1ccc2c(c1)N(CCCN1CCN(C3CC3)CC1)c1ccccc1S2	growth	83% (inactive)
COc1cc2c3cc1Oc1c(OC)c(OC)cc4c1C(Cc1ccc(O)c(c1)Oc1ccc(cc1)CC3N(C)CC2)N(C)CC4 (configuration not stated)	growth	-24.1% (active)
CC1(C)/C(=C\CO)C2CCC1C2 (configuration not stated)	growth	112% (inactive)
O=C(Nc1cccc(NC(=O)Nc2cc(C(F)(F)F)ccc2Cl)c1)Nc1cc(C(F)(F)F)ccc1Cl	growth	1.95% (active)
O=C1C=CC2=C3c4cc(O)c(O)cc4CC3(O)COC2=C1O (configuration not stated)	growth	99.1% (inactive)
Cc1cc(N)ccc1-c1ccc(N)cc1C	growth	106% (inactive)
CCN1C(=O)/C(=C/C=C/N(C)c2ccccc2)SC1=S	growth	94.2% (inactive)
S=c1sc2ccccc2n1CN1CCCCC1	growth	98.4% (inactive)
COc1cccc(COC(=O)Nc2ccccc2)c1OC	growth	104% (inactive)
Cc1cc(/C=C/c2ccc3cc(N(C)C)ccc3[n+]2C)c(C)n1-c1ccccc1	growth	-18.9% (active)
CC(C)(C)n1nc(C2CC2)c(Br)c1NC(=O)c1ccccc1F	growth	100% (inactive)
O=[N+]([O-])c1ccc(S(=O)(=O)NN=C2CCCCC2)cc1	growth	108% (inactive)
O=S(=O)(O)CC(O)CN1CCN(CCO)CC1 (configuration not stated)	growth	119% (inactive)
COc1ccc(C(=O)C(Br)C(Br)C(=O)O)cc1 (configuration not stated)	growth	111% (inactive)
NCCCN	growth	106% (inactive)
CCS(=O)(=O)c1cc(=O)[nH]c(=O)[nH]1	growth	101% (inactive)
O=C(O)/C=C/C(=O)NCc1ccccc1	growth	125% (inactive)
COCCOC(=O)c1ccc(C(C)C)cc1	growth	102% (inactive)
O=C(O)CCC(NC(=O)OCc1ccccc1)C(=O)O (configuration not stated)	growth	97% (inactive)
CC(C(=O)O)(C1CCCCC1)C1(O)CCCCC1 (configuration not stated)	growth	109% (inactive)
Cc1cc2nc(CO)[nH]c2cc1C	growth	109% (inactive)
CN(C)c1ccc(S(=O)(=O)O)cc1	growth	105% (inactive)
C/C(=N\O)C1(O)CCCCC1	growth	94.7% (inactive)
O=S(=O)(O)C(Nc1ccccc1)c1ccccc1 (configuration not stated)	growth	99.1% (inactive)
NCC(=O)CCC(=O)O	growth	107% (inactive)
CCCC1(c2ccccc2)NC(=O)NC1=O (configuration not stated)	growth	95.2% (inactive)
